Origin of measurements: PubChem BioAssay AID1963436

tested on: OVCAR-5 complex spheroid (HUVEC/MSC), viability % T/C; test: Anticancer human tumor OVCAR-5 cell line growth inhibition [Asc]; conditions: second compound 10 µM; first compound 0.0316 µM; stronger effect = lower value;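 note: spheroids exposed to agents for 7 days before readout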;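 for viability, T/C: 100% = DMSO vehicle-treated wells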
ASSAY METRIC: viability, T/C

Prompt line: May I ask what viability, T/C has been recorded for CNC(C)C(=O)NC1CN(S(=O)(=O)c2cccc(S(=O)(=O)N3CCC4CCC(C(=O)NC(c5ccccc5)c5ccccc5)N4C(=O)C(NC(=O)C(C)NC)C3)c2)CCC2CCC(C(=O)NC(c3ccccc3)c3ccccc3)N2C1=O (configuration not stated) + Cc1c(S(C)(=O)=O)c(-c2cc(F)cc(N3CCN(c4ccc(NS(=O)(=O)c5ccc(NC(CCN6CCC(C(=O)OCCCP(=O)(O)O)CC6)CSc6ccccc6)c(S(=O)(=O)C(F)(F)F)c5)cc4)CC3)c2)c(-c2ccc(Cl)cc2)n1C(C)C ?
Response line: 121%

Prompt line: May I ask what viability, T/C has been recorded for O=C(c1cc(Cc2n[nH]c(=O)c3ccccc23)ccc1F)N1CCN(C(=O)C2CC2)CC1 + Cc1c(S(C)(=O)=O)c(-c2cc(F)cc(N3CCN(c4ccc(NS(=O)(=O)c5ccc(NC(CCN6CCC(C(=O)OCCCP(=O)(O)O)CC6)CSc6ccccc6)c(S(=O)(=O)C(F)(F)F)c5)cc4)CC3)c2)c(-c2ccc(Cl)cc2)n1C(C)C ?
Response line: 130%

====

tested on: OVCAR-5 complex spheroid (HUVEC/MSC), viability % T/C; test: Anticancer human tumor OVCAR-5 cell line growth inhibition [Asc]; settings: curve of first compound; second compound 0.0949 µM;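 note: spheroids exposed to agents for 7 days before readout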
ASSAY METRIC: IC50

Worked set:
NC1CCC(NC2CC2c2ccccc2)CC1 (stereo unspecified) + CCN1C(C(=O)NC23CCC(C(=O)O)(CC2)CC3)C(c2cccc(Cl)c2F)C2(C(=O)Nc3cc(Cl)ccc32)C12CCCCC2	> 100 nM
C=CC(=O)N1CCN(c2nc(=O)n(-c3c(C)ccnc3C(C)C)c3nc(-c4c(O)cccc4F)c(F)cc23)C(C)C1 (stereo unspecified) + CCN1C(C(=O)NC23CCC(C(=O)O)(CC2)CC3)C(c2cccc(Cl)c2F)C2(C(=O)Nc3cc(Cl)ccc32)C12CCCCC2	> 10000 nM
O=C(c1ccc(F)c(F)c1Nc1ccc(I)cc1F)N1CC(O)([C@@H]2CCCCN2)C1 + CCN1C(C(=O)NC23CCC(C(=O)O)(CC2)CC3)C(c2cccc(Cl)c2F)C2(C(=O)Nc3cc(Cl)ccc32)C12CCCCC2	81.4 nM
COc1c(OCCCN2CCOCC2)ccc2c3n(c(=NC(=O)c4cnc(N)nc4)nc12)CCN3 + CCN1C(C(=O)NC23CCC(C(=O)O)(CC2)CC3)C(c2cccc(Cl)c2F)C2(C(=O)Nc3cc(Cl)ccc32)C12CCCCC2	29.5 nM
Cc1nc(N2CCC3(CC2)COC(C)C3N)c(CO)nc1Sc1ccnc(N)c1Cl (stereo unspecified) + CCN1C(C(=O)NC23CCC(C(=O)O)(CC2)CC3)C(c2cccc(Cl)c2F)C2(C(=O)Nc3cc(Cl)ccc32)C12CCCCC2	> 3000 nM

We now examine a further molecule.
Prompt line: May I ask what IC50 has been recorded for O=C(c1cc(Cc2n[nH]c(=O)c3ccccc23)ccc1F)N1CCN(C(=O)C2CC2)CC1 + CCN1C(C(=O)NC23CCC(C(=O)O)(CC2)CC3)C(c2cccc(Cl)c2F)C2(C(=O)Nc3cc(Cl)ccc32)C12CCCCC2 ?
Response line: > 10000 nM
